- Organism: Rattus norvegicus
- MEASUREMENT_PROTOCOL: Open TG-GATES - Regimen: Daily Repeat
- Assay type: toxicity, organism-based, Sprague-Dawley
- Design: regimen Daily Repeat, gender Male, age 6 weeks
- CONDITIONS_USED: in vivo, po, 0 mg/kg, […], tissue Blood, route gavage, dose level Control, time 14 day
OBSERVED_PROPERTY: Lym

# SMILES_DATA, VALUE_OBSERVED
data = [
    ("O=C(N[C@H](CO)[C@H](O)c1ccc([N+](=O)[O-])cc1)C(Cl)Cl", "78.4%"),
    ("C[C@]12CCC(=O)C=C1CC[C@@H]1[C@@H]2CC[C@@]2(C)[C@H]1CC[C@]2(C)O", "80.6%"),
    ("CCC(C)(C)C(=O)O[C@H]1C[C@@H](C)C=C2C=C[C@H](C)[C@H](CC[C@@H]3C[C@@H](O)CC(=O)O3)[C@H]21", "78.4%"),
    ("CCSCC[C@H](N)C(=O)O", "77.2%"),
    ("Nc1nc(N)c2nc(-c3ccccc3)c(N)nc2n1", "78.4%"),
    ("C[C@](N)(Cc1ccc(O)c(O)c1)C(=O)O", "76%"),
    ("C#C[C@]1(O)CC[C@H]2[C@@H]3CCc4cc(O)ccc4[C@H]3CC[C@@]21C", "76.4%"),
    ("CN1C(=O)OC(C)(C)C1=O", "77.8%"),
    ("O=C(O)c1cccnc1", "77.8%"),
]
